The measurements presented in this section are drawn from the Biogen ADME set (Fang et al. 2023).

# intrinsic clearance, human liver microsomes per entry

Please review the following examples before continuing.
>  <Chemical structure>
Cc1ncccc1NC(=O)OC(C)(C)C

>  <Result>
≤ 4.74 mL/min/kg

$$$$
>  <Chemical structure>
Cc1nnc2ncc(-c3cccc(-c4ccnn4C)c3)cn12

>  <Result>
≤ 4.74 mL/min/kg

$$$$
>  <Chemical structure>
CN1CCC(O)(CNS(=O)(=O)CC2CCCCC2)CC1

>  <Result>
≤ 4.74 mL/min/kg

$$$$
>  <Chemical structure>
CN(CC1(CO)CCCC1)C(=O)CCN1CCCCC1=O

>  <Result>
≤ 4.74 mL/min/kg

$$$$
>  <Chemical structure>
CCn1cnnc1CN(C)C1CCN(c2ccccc2F)CC1

>  <Result>
≤ 4.74 mL/min/kg

$$$$

Report intrinsic clearance, human liver microsomes for `CN(C)C1=N[C@@H]2[C@@H](O)[C@H](O)[C@@H](CO)O[C@@H]2S1`
≤ 4.74 mL/min/kg

Return value of intrinsic clearance, human liver microsomes for input `CN(Cc1ccc(Br)o1)C(=O)CN1CCCC1=O` , no commentary.
≤ 4.74 mL/min/kg
